Species on record: Rattus norvegicus
assay-method-text: In vitro inhibition of palmitate oxidation
Format: functional
condition-set: Rattus norvegicus
pIC50: −log10 of the molar value.
pIC50 vs 5: at or above is Met, below is Not met.

Below are worked cases with known answers.
# compound, discrete-label
measured = [
    ("CCCCCCC1(C(=O)OC)CO1 (centres undefined)", "Not met"),
    ("CCCCCCCCCCCCCCC1(C(=O)OCC(O)CO)CO1 (centres undefined)", "Not met"),
    ("CCCCCCCCCCCC1(C(=O)OC)CO1 (centres undefined)", "Met"),
    ("CCCCCCCCCCC1(C(=O)OC)CO1 (centres undefined)", "Met"),
    ("CCCCCCCCCCCCCCCCC1(C(=O)OC)CO1 (centres undefined)", "Not met"),
]

Answer whether pIC50 of CCCCCCCCCCCCCCC1(C(=O)OCCCC)CO1 (centres undefined) is greater than or equal to 5.
Not met

Also need CCCCCCCCCCCCC1(C(=O)OC)CO1 (centres undefined) , thanks.
Not met

Also need CCCCCCCCCCCCCCC1(C(=O)OC)CO1 (centres undefined) [METHYL PALMOXIRATE] , thanks.
Met

====

Species on record: Rattus norvegicus
assay-method-text: Compound was tested in vitro for inhibition of palmitate oxidation
Assay type: functional
condition-set: Rattus norvegicus; read-out: MEC
metric: minimal effective concentration (µM)
One number for each entry, in µM.

# compound, minimal effective concentration, µM
rows = [
    ("CCCCCCCCCCCCCC1(C(=O)OC)CO1 (stereo not given)", 1),
]

Look up minimal effective concentration for the entries below, preserving their order.
1. CCCCCCCCCCCCC1(C(=O)OC)CO1 (stereo not given)
2. CCCCCCCCCCCCCCC1(C(=O)O)CO1 (stereo not given) [PALMOXIRATE]
3. CCCCCCCCCCCCCCC1(C(=O)OC)CO1 (stereo not given) [METHYL PALMOXIRATE]

1. 1
2. 0.1
3. 0.1

====

Test system: Rattus norvegicus
assay-method-text: Minimum effective concentration by rat glucose tolerance test (po)
Format: functional
condition-set: read-out: MED
metric: log10 of minimal effective dose (log10 of the value in mg/kg)
Units before log transform: mg/kg; reported quantity: minimal effective dose; transform: log10.

Guide cases for log10 of minimal effective dose, answers given:
# molecule, log10 of minimal effective dose
records = [
    ("CCCCCCCCCCCCCCC1(C(=O)NCCO)CO1 (stereo not given)", 2.00),
    ("CCCCCCCCCCCCCCCCCCC1(C(=O)OC)CO1 (stereo not given)", 1.00),
]

Look up log10 of minimal effective dose for the entries below, preserving their order.
1. CCCCCCCCCCCCCCCCCCCCCCC1(C(=O)OC)CO1 (stereo not given)
2. CCCCCCCCCCC1(C(=O)OC)CO1 (stereo not given)
3. CCCCCCCCCCCCC1(C(=O)OC)CO1 (stereo not given)
4. CCCCCCCCCCCCCC1(C(=O)OC)CO1 (stereo not given)
5. CCCCCCCCCCCCCCC1(C(=O)OC)CO1 (stereo not given) [METHYL PALMOXIRATE]
6. CCCCCCCCCCCCCCCCC1(C(=O)OC)CO1 (stereo not given)
7. CCCCCCCCCCCCCCC1(C(=O)OCC(O)CO)CO1 (stereo not given)
8. CCCCCCCCCCCCCCC1(C(=O)N(C)C)CO1 (stereo not given)

1.00
1.00
0.70
0.70
0.60
1.40
0.70
1.40

====

Species on record: Rattus norvegicus
assay-method-text: Compound was tested in vitro for inhibition of palmitate oxidation; Inactive
Assay type: functional
Calls of active or inactive are those of the source. The rule behind the calls is not given here.
metric: MEC

# molecule, MEC
measured = [
    ("CCCCCCCCCCCCCCC1(C(N)=O)CO1 (stereo not given)", "inactive"),
    ("COC(=O)C1(C)CO1 (stereo not given)", "inactive"),
    ("CCCCCCCCCCCCCCC1(CC(C(=O)OC)C(=O)OC)CO1 (stereo not given)", "inactive"),
    ("CCCCCCCCCCCCCCC1(CCC(=O)OC)CO1 (stereo not given)", "inactive"),
]

Lab note: next molecule to report on.
Recorded MEC of CCCCCCCCCCCCCCC1(C(=O)N(C)C)CO1 (stereo not given) , please.
inactive

====

Species on record: Rattus norvegicus
assay-method-text: Compound was tested in vitro for inhibition of palmitate oxidation
Assay type: functional
condition-set: Rattus norvegicus; read-out: MEC
metric: minimal effective concentration

Guide cases for minimal effective concentration, answers given:
# compound, reported
data = [
    ("CCCCCCC1(C(=O)OC)CO1 (stereo unspecified)", "20 µM"),
    ("CCCCCCCCCCCCCCC1(C(=O)OCC(O)CO)CO1 (stereo unspecified)", "10 µM"),
]

Look up minimal effective concentration for the entries below, preserving their order.
1. CCCCCCCCCCC1(C(=O)OC)CO1 (stereo unspecified)
2. CCCCCCCCCCCCCCC1(C(=O)OCCCC)CO1 (stereo unspecified)
3. CCCCCCCCCCCCCCCCC1(C(=O)OC)CO1 (stereo unspecified)
4. CCCCCCCCCCCC1(C(=O)OC)CO1 (stereo unspecified)

1: 0.5 µM; 2: 10 µM; 3: 10 µM; 4: 2.5 µM
